Reported TGI by item:
System: A549
PROTOCOL_DETAILS: Cytotoxicity against human A549 cells after 48 hrs by sulforhodamine B assay
Type: functional
CONDITION_DESCRIPTION: A549, 48 h
ASSAY_ENDPOINT: TGI

>>> df
                            chemical_smiles     value
0  COC(=O)[C@@H]1C[C@@]2(Br)c3cc(Br)ccc3N3C(=N)C(C)(C)N1[C@H]32  > 100 µM
1  COC(=O)[C@@H]1C[C@H]2c3ccccc3N3C(=N)C4(CCCCC4)N1[C@@H]23   9.23 µM
2  C=CC[C@@]12C[C@@H](C(=O)OC)N3[C@@H]1N(C(=N)C31CCCCC1)c1ccccc12   24.1 µM
3  COC(=O)[C@@H]1C[C@@]2(Br)c3cc(Br)ccc3N3C(=N)[C@H](C(C)(C)C)N1[C@H]32  > 100 µM
4  COC(=O)[C@@H]1C[C@@]2(Br)c3ccccc3N3C(=N)[C@H](C(C)(C)C)N1[C@H]32  > 100 µM
5  COC(=O)[C@@H]1C[C@]2(CC=C(C)C)c3ccccc3N3C(=N)[C@@H](Cc4ccccc4)N1[C@@H]32   24.1 µM
6  COC(=O)[C@@H]1C[C@@]2(CC=C(C)C)c3ccccc3N3C(=N)[C@H](c4ccccc4)N1[C@H]32  > 100 µM
7  COC(=O)[C@@H]1C[C@@]2(CC=C(C)C)c3ccccc3N3C(=N)C(C)(C)N1[C@H]32   28.3 µM
